test system: NCI-H460 lung; experiment: NCI tumour cell line growth inhibition, 48 h

{"columns": ["MOLECULE", "INEQUALITY_OPERATOR", "TGI / µM"],
 "data": [
  ["CC(C)(/C=N\\O)NO", ">", 10],
  ["N#Cc1c(-c2ccccc2)cc(-c2ccccc2)n(CC(=O)NO)c1=O", ">", 100],
  ["O=C(N=Nc1c(O)[nH]c2c(Cl)cc(Cl)cc12)c1ccccc1O", "=", 27.6],
  ["COc1cc(-c2n[nH]nc2-c2ccc3c(c2)OCCO3)cc(OC)c1OC", "=", 20],
  ["COc1ccc(/C=C/c2nnc(/C=C/c3ccc(OC)c(OC)c3)o2)cc1OC", ">", 100],
  ["O=C1Cc2c([nH]c3ccccc23)C2(CC3CCCCN13)OCCO2 (stereo unspecified)", ">", 100],
  ["c1ccc(-c2cc(-c3cccs3)c(-c3cccs3)s2)cc1", ">", 100],
  ["CC(C)CCNc1ncnc2[nH]ncc12", ">", 100],
  ["NC(N)=N/N=C(/CC1OC(=O)c2ccccc21)c1ccc2ccccc2c1 (stereo unspecified)", "=", 32.5],
  ["COc1ccc2nc3ccccc3c(NCCN(C)CCCl)c2c1", "=", 2.49],
  ["CC(=O)c1sc2c(c1OC(=O)c1ccc(Cl)cc1)c(=O)n(-c1ccccc1)c(=S)n2-c1ccccc1", "=", 22.1]
]}

----------
tested on: M19-MEL melanoma; assay: NCI tumour cell line growth inhibition, 48 h

{"columns": ["COMPOUND", "SYSTEM_NAME", "TGI"],
 "data": [
  ["OCc1nnn2c1CCC2", "M19-MEL melanoma", "> 100 µM"],
  ["COc1cc2cc3c4c(cc(OC)c(OC)c4c2cc1OC)CCN3", "M19-MEL melanoma", "25.6 µM"],
  ["Nc1ncnc2c1ncn2C1OC(CSCc2ccc(Cl)cc2)C(O)C1O (stereo unspecified)", "M19-MEL melanoma", "> 100 µM"],
  ["COC(=O)c1cc(-c2ccc(OC)c(OC)c2)oc1-c1ccc(OC)c(OC)c1", "M19-MEL melanoma", "> 100 µM"],
  ["O=C1/C(=C/c2ccccc2)CN(C(=O)C(F)(F)F)C/C1=C\\c1ccccc1", "M19-MEL melanoma", "3.1 µM"],
  ["CC(=O)OC1COC(N2CCc3ccccc32)C(OC(C)=O)C1OC(C)=O (stereo unspecified)", "M19-MEL melanoma", "> 100 µM"]
]}

----------
system: COLO 205 colon; experiment: NCI tumour cell line growth inhibition, 48 h
Examples of molecules with documented TGI follow.

{"columns": ["MOLECULE", "TGI"],
 "data": [
  ["CN(C)c1ccc(/C=C/c2nc3ccccc3s2)cc1", "> 100 µM"],
  ["O=C(O)C1[C@@H](C(=O)O)C1(Br)CBr (some centres undefined)", "> 100 µM"],
  ["COc1ccc(C2N(c3ccc(F)c([N+](=O)[O-])c3)C(=O)N3C(c4ccc(OC)cc4)N(c4ccc(F)c([N+](=O)[O-])c4)C(=O)N23)cc1 (centres undefined)", "> 100 µM"],
  ["COP(C)(=O)C1=CCN(C(=O)OCC[Si](C)(C)C)CC1 (centres undefined)", "> 100 µM"],
  ["O=C1/C(=C/c2ccccc2)CN(C(=O)C(F)(F)F)C/C1=C\\c1ccccc1", "5.11 µM"],
  ["Cc1ccc(Nc2nc3nc[nH]c3c(=O)[nH]2)cc1CO", "27.8 µM"],
  ["CC1=CN(c2ccccc2)S2=C1c1sc3c(c1N2c1ccc(Br)cc1)CCCC3 (centres undefined)", "> 100 µM"],
  ["CC(=O)c1nc2ccccc2n1CCN1CCN(C)CC1", "6.39 µM"],
  ["CC(=O)C(C)CCOC1(C)OCCC1C (centres undefined)", "> 100 µM"],
  ["COC(=O)c1c(OC(C)=O)ccc2c1c1c(OC(C)=O)c3ccccc3c(OC(C)=O)c1n2C", "> 100 µM"],
  ["COc1cccc(C2c3cc4c(cc3OC(NNc3ccccc3)C2C)OCO4)c1O (centres undefined)", "23.8 µM"],
  ["N=[N+]=NC1C(O)C(CO)OC1n1cnc2c(N)ncnc21 (centres undefined)", "> 100 µM"],
  ["CCCCCCCCc1cc[n+](CC(=O)c2ccc(Br)cc2)cc1", "2.28 µM"],
  ["O=C1Cc2c([nH]c3ccccc23)C2(CC3CCCCN13)OCCO2 (centres undefined)", "> 100 µM"],
  ["Clc1ccc(CCC(Cn2ccnc2)Sc2c(Cl)cccc2Cl)cc1 (centres undefined)", "11.1 µM"],
  ["COc1ccc(CCn2c3c(c4c(O)cccc42)C(=O)c2ccccc2-3)cc1OC", "> 87.3 µM"],
  ["NC(N)=N/N=C(/CC1OC(=O)c2ccccc21)c1ccc2ccccc2c1 (centres undefined)", "39 µM"],
  ["COc1ccc2nc3ccccc3c(NCCN(C)CCCl)c2c1", "1.84 µM"],
  ["O=C(N/S(=N/S(=O)(=O)c1ccc(Br)cc1)C(Cl)(Cl)Cl)c1ccccc1 (centres undefined)", "> 100 µM"],
  ["N#CCCOc1cccc(C2(N3CCCCC3)CCCCC2)c1", "> 100 µM"],
  ["N#C/C(=C\\c1cc(F)cc(F)c1)c1ccccn1", "> 10 µM"],
  ["COc1ccc2nc(NNC(=O)c3cnccn3)c3cccn3c2c1", "8.28 µM"],
  ["COc1ccc(/C=C(\\C#N)c2ccc(OC)cc2)cc1", "> 100 µM"],
  ["COc1ccc(-c2cc(-c3ccccc3)nc(/N=C\\c3ccccc3)n2)c(O)c1", "> 100 µM"],
  ["Cc1ccc(-c2c(C#N)[n+](=O)c3cc(Cl)c(Cl)cc3n2[O-])cc1", "24.2 µM"],
  ["c1ccc(CNCCN2CCNCC2)nc1", "> 100 µM"],
  ["O=C(O)CNC(=O)C(CSC(=O)OCC1c2ccccc2-c2ccccc21)NC(=O)CCC(NC(=O)OCC1c2ccccc2-c2ccccc21)C(=O)O (centres undefined)", "31.1 µM"],
  ["NC1(C(=O)O)CCCC1C(=O)O (centres undefined)", "> 100 µM"],
  ["NS(=O)(=O)N(c1cc(C(F)(F)F)cc(C(F)(F)F)c1)C1CCN(Cc2ccc(F)cc2)CC1", "3.08 µM"],
  ["CC(C)CC(C(N)=O)C(=O)NC(Cc1ccccc1)NC(=O)CNC(=O)C(C)NC(=O)C(N)Cc1ccc(O)cc1 (centres undefined)", "> 100 µM"],
  ["CCOC(=O)COc1ccc(OCC(=O)OCC)c2c1C(=O)CCCC2=O", "> 100 µM"],
  ["CCOC(=O)c1nc2cc(C(F)(F)F)ccc2nc1Nc1cc(OC)c(OC)c(OC)c1", "> 100 µM"],
  ["C=C(C)C(=O)Oc1ccc(N=Nc2ccc(C)cc2)ccc1=O", "14.6 µM"],
  ["OCCN1c2ccccc2Sc2ccccc21", "> 10 µM"],
  ["O=C(O)CC(O)(c1ccccc1C(=O)O)c1cccc2ccccc12 (centres undefined)", "> 100 µM"],
  ["Cc1c2ccccc2cc2nc3ccccc3n12", "> 10 µM"],
  ["C=CN1CCN(c2ccccc2)P1(=O)Oc1ccccc1 (centres undefined)", "> 100 µM"],
  ["COC(=O)C(CC(=O)c1ccccc1)c1ccccc1NC(C)=O (centres undefined)", "> 100 µM"],
  ["O=CNCCCN1CCN(CCCNC=O)CC1", "> 100 µM"],
  ["COc1cc(Br)cc2cc(C3=CSC4=NCCN34)c(=O)oc12", "43.5 µM"],
  ["C=C1C(=O)O[C@H]2[C@H]1CC/C(COC(=O)CCCCCCC(=O)OC/C1=C/CC[C@@]3(C)O[C@H]3[C@H]3OC(=O)C(=C)[C@@H]3CC1)=C\\CC[C@@]1(C)O[C@@H]21", "4.26 µM"],
  ["O=C(O)CN1CCNCCNCC1", "> 100 µM"],
  ["C[C@H]1COC(c2ccccn2)=N1", "> 100 µM"],
  ["COc1ccc(Nc2nccc(Nc3ccc4[nH]ncc4c3)n2)cc1", "7.21 µM"]
]}
